# EXPERIMENT_NOTES: First-in-human single-ascending-dose study: plasma pharmacokinetics
# Format: in vivo
# CONDITION_INFO: human, plasma, po, 40 mg, single oral 40 mg FED (high-fat breakfast), powder-in-bottle, n = 6, median (range), read-out: Tmax
MEASURED_PARAMETER: Tmax
Answer with the value and then the unit.

**Q:** Tmax lookup needed for CS(=O)(=O)c1ccc(-c2cnc(N)c(-c3ccc(C(F)(F)F)nc3)c2)cc1 [MMV390048] , thanks.
**A:** 4 h

----------
# EXPERIMENT_NOTES: First-in-human single-ascending-dose study: plasma pharmacokinetics
# Assay type: in vivo
# CONDITION_INFO: human, plasma, po, 5 mg, single oral 5 mg fasted, powder-in-bottle, n = 6, geometric mean (CV %), read-out: Vz/F
MEASURED_PARAMETER: Vd/F (L)
Output spec: scalar in L, unitless text.

**Q:** Quick one: Vd/F for `CS(=O)(=O)c1ccc(-c2cnc(N)c(-c3ccc(C(F)(F)F)nc3)c2)cc1` ?
**A:** 520

----------
# EXPERIMENT_NOTES: First-in-human single-ascending-dose study: plasma pharmacokinetics
# Type: in vivo
# CONDITION_INFO: human, plasma, po, 120 mg, single oral 120 mg fasted, powder-in-bottle, n = 5, geometric mean (CV %), read-out: t1/2 (converted)
MEASURED_PARAMETER: half-life
# include the unit after the value

**Q:** Fill in the blank: the reported half-life of `CS(=O)(=O)c1ccc(-c2cnc(N)c(-c3ccc(C(F)(F)F)nc3)c2)cc1` is ____.
**A:** 206 h

----------
# EXPERIMENT_NOTES: First-in-human single-ascending-dose study: plasma pharmacokinetics
# Type: in vivo
# CONDITION_INFO: human, plasma, po, 80 mg, single oral 80 mg fasted, powder-in-bottle, n = 6, geometric mean (CV %)
MEASURED_PARAMETER: Cmax
Enter the number, and then the unit.

**Q:** Any idea what its Cmax is? The compound is CS(=O)(=O)c1ccc(-c2cnc(N)c(-c3ccc(C(F)(F)F)nc3)c2)cc1 [MMV390048]
**A:** 238 ng/mL

----------
# EXPERIMENT_NOTES: First-in-human single-ascending-dose study: plasma pharmacokinetics
# Type: in vivo
# CONDITION_INFO: human, plasma, po, 40 mg, single oral 40 mg fasted, powder-in-bottle, n = 6, geometric mean (CV %)
# Experimental: (i) First-in-human study. The study was conducted in five fasted cohorts (5, 20, 40, 80, and 120 mg) and one fed 40-mg cohort. […] Doses administered to subsequent cohorts were determined a priori after consideration of interim human pharmacokinetic and safety data. […] Blood samples from the three studies were analyzed at the University of Cape Town Division of Clinical Pharmacology Laboratory. […]
MEASURED_PARAMETER: Cmax (ng/mL)
Express it in ng/mL; write the number only.

**Q:** // lookup Cmax for CS(=O)(=O)c1ccc(-c2cnc(N)c(-c3ccc(C(F)(F)F)nc3)c2)cc1 [MMV390048]
**A:** 74.4

----------
# EXPERIMENT_NOTES: First-in-human single-ascending-dose study: plasma pharmacokinetics
# Format: in vivo
# CONDITION_INFO: human, plasma, po, 20 mg, single oral 20 mg fasted, powder-in-bottle, n = 6, geometric mean (CV %), read-out: Vz/F
MEASURED_PARAMETER: Vd/F (L)
Lab book: enter the figure in L, no units written.

**Q:** Which Vd/F value is on record for CS(=O)(=O)c1ccc(-c2cnc(N)c(-c3ccc(C(F)(F)F)nc3)c2)cc1 [MMV390048] ?
**A:** 266

----------
# EXPERIMENT_NOTES: First-in-human single-ascending-dose study: plasma pharmacokinetics
# Type: in vivo
# CONDITION_INFO: human, plasma, po, 120 mg, single oral 120 mg fasted, powder-in-bottle, n = 5, geometric mean (CV %), read-out: Vz/F
# Description: (i) First-in-human study. The study was conducted in five fasted cohorts (5, 20, 40, 80, and 120 mg) and one fed 40-mg cohort. […] Doses administered to subsequent cohorts were determined a priori after consideration of interim human pharmacokinetic and safety data. […] Blood samples from the three studies were analyzed at the University of Cape Town Division of Clinical Pharmacology Laboratory. […]
MEASURED_PARAMETER: Vd/F (L)
Report the value in L with no unit label.

**Q:** What measured Vd/F goes with CS(=O)(=O)c1ccc(-c2cnc(N)c(-c3ccc(C(F)(F)F)nc3)c2)cc1 [MMV390048] ?
**A:** 432

----------
# EXPERIMENT_NOTES: First-in-human single-ascending-dose study: plasma pharmacokinetics
# Assay type: in vivo
# CONDITION_INFO: human, plasma, po, 120 mg, single oral 120 mg fasted, powder-in-bottle, n = 5, median (range), read-out: Tmax
MEASURED_PARAMETER: Tmax (h)
Give the value, in units of h, as a plain number.

**Q:** // lookup Tmax for `CS(=O)(=O)c1ccc(-c2cnc(N)c(-c3ccc(C(F)(F)F)nc3)c2)cc1`
**A:** 1

----------
# EXPERIMENT_NOTES: First-in-human single-ascending-dose study: plasma pharmacokinetics
# Assay type: in vivo
# CONDITION_INFO: human, plasma, po, 120 mg, single oral 120 mg fasted, powder-in-bottle, n = 5, geometric mean (CV %)
MEASURED_PARAMETER: Cmax (ng/mL)
Your answer is read as ng/mL, so omit the unit and give the number.

**Q:** Bench note: what Cmax did `CS(=O)(=O)c1ccc(-c2cnc(N)c(-c3ccc(C(F)(F)F)nc3)c2)cc1` show?
**A:** 518

----------
# EXPERIMENT_NOTES: First-in-human single-ascending-dose study: plasma pharmacokinetics
# Format: in vivo
# CONDITION_INFO: human, plasma, po, 5 mg, single oral 5 mg fasted, powder-in-bottle, n = 6, geometric mean (CV %)
MEASURED_PARAMETER: AUC(0-inf) (ng·h/mL)
Your answer is read as ng·h/mL, so omit the unit and give the number.

**Q:** Using the record for `CS(=O)(=O)c1ccc(-c2cnc(N)c(-c3ccc(C(F)(F)F)nc3)c2)cc1` , report its AUC(0-inf).
**A:** 2140

----------
# EXPERIMENT_NOTES: First-in-human single-ascending-dose study: plasma pharmacokinetics
# Format: in vivo
# CONDITION_INFO: human, plasma, po, 40 mg, single oral 40 mg fasted, powder-in-bottle, n = 6, geometric mean (CV %), read-out: Vz/F
MEASURED_PARAMETER: Vd/F
# output: numeric value plus its unit

**Q:** I'd like to know its Vd/F. The compound in question is `CS(=O)(=O)c1ccc(-c2cnc(N)c(-c3ccc(C(F)(F)F)nc3)c2)cc1`
**A:** 624 L

----------
# EXPERIMENT_NOTES: First-in-human single-ascending-dose study: plasma pharmacokinetics
# Format: in vivo
# CONDITION_INFO: human, plasma, po, 120 mg, single oral 120 mg fasted, powder-in-bottle, n = 5, geometric mean (CV %)
MEASURED_PARAMETER: AUC(0-inf) (ng·h/mL)
Answer with a number only, understood to be in ng·h/mL.

**Q:** Entry under review: `CS(=O)(=O)c1ccc(-c2cnc(N)c(-c3ccc(C(F)(F)F)nc3)c2)cc1` . Reported AUC(0-inf)?
**A:** 82600

----------
# EXPERIMENT_NOTES: First-in-human single-ascending-dose study: plasma pharmacokinetics
# Assay type: in vivo
# CONDITION_INFO: human, plasma, po, 80 mg, single oral 80 mg fasted, powder-in-bottle, n = 6, geometric mean (CV %), read-out: t1/2 (converted)
MEASURED_PARAMETER: half-life (h)
Answer with a number only, understood to be in h.

**Q:** Which half-life is listed for CS(=O)(=O)c1ccc(-c2cnc(N)c(-c3ccc(C(F)(F)F)nc3)c2)cc1 [MMV390048] ?
**A:** 239

----------
# EXPERIMENT_NOTES: First-in-human single-ascending-dose study: plasma pharmacokinetics
# Assay type: in vivo
# CONDITION_INFO: human, plasma, po, 20 mg, single oral 20 mg fasted, powder-in-bottle, n = 6, geometric mean (CV %)
MEASURED_PARAMETER: Cmax
Remember to quote the unit after the number.

**Q:** Endpoint output: Cmax of CS(=O)(=O)c1ccc(-c2cnc(N)c(-c3ccc(C(F)(F)F)nc3)c2)cc1 [MMV390048] . Value?
**A:** 136 ng/mL

----------
# EXPERIMENT_NOTES: First-in-human single-ascending-dose study: plasma pharmacokinetics
# Format: in vivo
# CONDITION_INFO: human, plasma, po, 40 mg, single oral 40 mg FED (high-fat breakfast), powder-in-bottle, n = 6, geometric mean (CV %)
MEASURED_PARAMETER: AUC(0-inf)

**Q:** Need AUC(0-inf), item `CS(=O)(=O)c1ccc(-c2cnc(N)c(-c3ccc(C(F)(F)F)nc3)c2)cc1`
**A:** 34500 ng·h/mL
